Reported green leaf area of the flag leaf (F) is given for each of the following compounds.
Test system: infection-free wheat plants of the cultivar Passat
PROTOCOL DESCRIPTION: Glasshouse trial: green leaf area by visual scoring
Type: in vivo
SETTINGS: 96 days after second fungicide application (so in the source); glasshouse
Please respond with the number in % leaf area and leave the unit unwritten.

Consider the worked cases shown below.
| COMPOUND | OBSERVED |
| --- | --- |
| CO/N=C(/C1=NOCCO1)c1ccccc1Oc1ncnc(Oc2ccccc2Cl)c1F | 85 |
| OC(Cc1ccccc1Cl)(Cn1nc[nH]c1=S)C1(Cl)CC1 (stereo not shown) | 85 |
| CCCN(CC)CC1COC2(CCC(C(C)(C)C)CC2)O1 (stereo not shown) | 80 |

Request: I am curious: what green leaf area of the flag leaf (F) value has been reported for `Cn1cc(C(=O)Nc2ccc(F)cc2-c2ccc(Cl)c(Cl)c2)c(C(F)F)n1` ?
Response: 88

====

Tested on: wheat variety Ritmo
PROTOCOL DESCRIPTION: Plot trial in Germany: green leaf area by visual scoring
Format: in vivo
SETTINGS: 14 days after second fungicide application; sprays at BBCH 39 and 59
QUANTITY NAME: green leaf area of the flag leaf (% leaf area)
Please respond with the number in % leaf area and leave the unit unwritten.

Consider the worked cases shown below.
| COMPOUND | green leaf area of the flag leaf [% leaf area] |
| --- | --- |
| CCCN(CC)CC1COC2(CCC(C(C)(C)C)CC2)O1 (centres unmarked) | 97.9 |
| O=C(Nc1ccccc1-c1ccc(Cl)cc1)c1cccnc1Cl | 95.5 |
| OC(Cc1ccccc1Cl)(Cn1nc[nH]c1=S)C1(Cl)CC1 (centres unmarked) | 98.2 |
| CO/N=C(/C1=NOCCO1)c1ccccc1Oc1ncnc(Oc2ccccc2Cl)c1F | 98.7 |

Request: I am curious: what green leaf area of the flag leaf value has been reported for `Cn1cc(C(=O)Nc2ccc(F)cc2-c2ccc(Cl)c(Cl)c2)c(C(F)F)n1` ?
Response: 98.7

====

Tested on: infection-free wheat plants of the cultivar Passat
PROTOCOL DESCRIPTION: Glasshouse trial: temperature of ears and leaves as measure of transpiration activity
Format: in vivo
SETTINGS: BBCH 85; leaf
QUANTITY NAME: Temperature (as a measure of the transpiration activity) (°C)
Please respond with the number in °C and leave the unit unwritten.

| COMPOUND | UNITS TEXT | OBSERVED |
| --- | --- | --- |
| CO/N=C(/C1=NOCCO1)c1ccccc1Oc1ncnc(Oc2ccccc2Cl)c1F | °C | 23.4 |

Request: I am curious: what Temperature (as a measure of the transpiration activity) value has been reported for `Cn1cc(C(=O)Nc2ccc(F)cc2-c2ccc(Cl)c(Cl)c2)c(C(F)F)n1` ?
Response: 23.3

Request: Then what about the compound OC(Cc1ccccc1Cl)(Cn1nc[nH]c1=S)C1(Cl)CC1 (stereo not shown) ?
Response: 23.7

Request: Then what about the compound CCCN(CC)CC1COC2(CCC(C(C)(C)C)CC2)O1 (stereo not shown) ?
Response: 23.7

====

System: infection-free wheat plants of the cultivar Passat
PROTOCOL DESCRIPTION: Glasshouse trial: size of the flag leaf
Type: in vivo
SETTINGS: at BBCH 83-85; calculated using the formula A = 0.67 × length × width
QUANTITY NAME: Area of the flag leaf (cm^2)
Please respond with the number in cm^2 and leave the unit unwritten.

Consider the worked cases shown below.
| MOLECULE | Area of the flag leaf (cm^2) |
| --- | --- |
| OC(Cc1ccccc1Cl)(Cn1nc[nH]c1=S)C1(Cl)CC1 (stereo not shown) | 23.26 |
| CCCN(CC)CC1COC2(CCC(C(C)(C)C)CC2)O1 (stereo not shown) | 20.98 |
| CO/N=C(/C1=NOCCO1)c1ccccc1Oc1ncnc(Oc2ccccc2Cl)c1F | 24.01 |

Request: I am curious: what Area of the flag leaf value has been reported for `Cn1cc(C(=O)Nc2ccc(F)cc2-c2ccc(Cl)c(Cl)c2)c(C(F)F)n1` ?
Response: 32.01

====

Reported time of heading of wheat (ears emerged) is given for each of the following compounds.
System: infection-free wheat plants of the cultivar Passat
PROTOCOL DESCRIPTION: Glasshouse trial: time of heading (ear emergence)
Assay type: in vivo
Design: unit not given here
SETTINGS: 55 days after sowing
Quick one: just the number, no unit, thanks!

Consider the worked cases shown below.
| COMPOUND | OBSERVED |
| --- | --- |
| CO/N=C(/C1=NOCCO1)c1ccccc1Oc1ncnc(Oc2ccccc2Cl)c1F [Fluoxastrobin] | 43.8 |
| CCCN(CC)CC1COC2(CCC(C(C)(C)C)CC2)O1 (stereo not shown) [Spiroxamine] | 46.4 |
| Cn1cc(C(=O)Nc2ccc(F)cc2-c2ccc(Cl)c(Cl)c2)c(C(F)F)n1 [Bixafen] | 42.2 |

Now let's try a different one.
Request: I am curious: what time of heading of wheat (ears emerged) value has been reported for OC(Cc1ccccc1Cl)(Cn1nc[nH]c1=S)C1(Cl)CC1 (stereo not shown) [Prothioconazole] ?
Response: 42.6

====

System: infection-free wheat plants of the cultivar Passat
PROTOCOL DESCRIPTION: Glasshouse trial: green leaf area by visual scoring
Type: in vivo
SETTINGS: 82 days after second fungicide application (so in the source); glasshouse
QUANTITY NAME: green leaf area of the third-from-top leaf (F-2) (% leaf area)
Please respond with the number in % leaf area and leave the unit unwritten.

Consider the worked cases shown below.
| COMPOUND | SYSTEM UNDER TEST | OBSERVED |
| --- | --- | --- |
| CCCN(CC)CC1COC2(CCC(C(C)(C)C)CC2)O1 (stereo not shown) | infection-free wheat plants of the cultivar Passat | 73 |
| OC(Cc1ccccc1Cl)(Cn1nc[nH]c1=S)C1(Cl)CC1 (stereo not shown) | infection-free wheat plants of the cultivar Passat | 83 |
| Cn1cc(C(=O)Nc2ccc(F)cc2-c2ccc(Cl)c(Cl)c2)c(C(F)F)n1 | infection-free wheat plants of the cultivar Passat | 80 |

Request: I am curious: what green leaf area of the third-from-top leaf (F-2) value has been reported for `CO/N=C(/C1=NOCCO1)c1ccccc1Oc1ncnc(Oc2ccccc2Cl)c1F` ?
Response: 82

====

Reported green leaf area of the third-from-top leaf (F-2) is given for each of the following compounds.
Test system: wheat variety Ritmo
PROTOCOL DESCRIPTION: Plot trial in Germany: green leaf area by visual scoring
Type: in vivo
SETTINGS: 7 days after second fungicide application; sprays at BBCH 39 and 59
Please respond with the number in % leaf area and leave the unit unwritten.

Consider the worked cases shown below.
| COMPOUND | OBSERVED |
| --- | --- |
| CO/N=C(/C1=NOCCO1)c1ccccc1Oc1ncnc(Oc2ccccc2Cl)c1F | 96.3 |
| OC(Cc1ccccc1Cl)(Cn1nc[nH]c1=S)C1(Cl)CC1 (centres unmarked) | 96.1 |
| CCCN(CC)CC1COC2(CCC(C(C)(C)C)CC2)O1 (centres unmarked) | 94.1 |

Request: I am curious: what green leaf area of the third-from-top leaf (F-2) value has been reported for `Cn1cc(C(=O)Nc2ccc(F)cc2-c2ccc(Cl)c(Cl)c2)c(C(F)F)n1` ?
Response: 96.4

Request: Then what about the compound `O=C(Nc1ccccc1-c1ccc(Cl)cc1)c1cccnc1Cl` ?
Response: 90.3

====

Reported green leaf area of the flag leaf is given for each of the following compounds.
System: wheat variety Ritmo
PROTOCOL DESCRIPTION: Plot trial in Germany: green leaf area by visual scoring
Format: in vivo
SETTINGS: 21 days after second fungicide application; sprays at BBCH 39 and 59
Please respond with the number in % leaf area and leave the unit unwritten.

| COMPOUND | green leaf area of the flag leaf, % leaf area |
| --- | --- |
| OC(Cc1ccccc1Cl)(Cn1nc[nH]c1=S)C1(Cl)CC1 (centres unmarked) | 98.1 |
| Cn1cc(C(=O)Nc2ccc(F)cc2-c2ccc(Cl)c(Cl)c2)c(C(F)F)n1 | 98.8 |

Request: What value of green leaf area of the flag leaf on wheat variety Ritmo does CCCN(CC)CC1COC2(CCC(C(C)(C)C)CC2)O1 (centres unmarked) have?
Response: 92.7

Request: Then what about the compound `O=C(Nc1ccccc1-c1ccc(Cl)cc1)c1cccnc1Cl` ?
Response: 86.1

Request: Then what about the compound `CO/N=C(/C1=NOCCO1)c1ccccc1Oc1ncnc(Oc2ccccc2Cl)c1F` ?
Response: 98.3

====

Test system: wheat variety Ritmo
PROTOCOL DESCRIPTION: Plot trial: chlorophyll content of leaves (pigment extraction method of Ziegler and Ehle)
Format: in vivo
SETTINGS: BBCH 85 (mature dough); leaf F-2
// assign criterion met if Chlorophyll content falls strictly below 400 µg/g, else criterion not met (ties count as criterion not met)

Request: Answer whether the molecule OC(Cc1ccccc1Cl)(Cn1nc[nH]c1=S)C1(Cl)CC1 (centres unmarked) [Prothioconazole] has Chlorophyll content strictly less than 400 µg/g
Response: criterion met

Request: Then what about the molecule CCCN(CC)CC1COC2(CCC(C(C)(C)C)CC2)O1 (centres unmarked) [Spiroxamine] ?
Response: criterion met

Request: Then what about the molecule O=C(Nc1ccccc1-c1ccc(Cl)cc1)c1cccnc1Cl [Boscalid] ?
Response: criterion met

Request: Then what about the molecule CO/N=C(/C1=NOCCO1)c1ccccc1Oc1ncnc(Oc2ccccc2Cl)c1F [Fluoxastrobin] ?
Response: criterion not met
